Property: self-cleavage kobs at 160 uM GlcN6P; scope: individual variants
B1: glmS ribozyme (parent)
chain: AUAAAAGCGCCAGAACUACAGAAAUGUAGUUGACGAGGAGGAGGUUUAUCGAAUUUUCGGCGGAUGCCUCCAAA

Variants of: B1
Assay: self-cleavage kobs at 160 uM GlcN6P; higher = faster cleavage; RNA array
Conditions: with glucosamine-6-phosphate
This sample holds only a part of the variants without activity.
Field format: number, assumed s⁻¹, no unit text.

For orientation, consider the following solved cases.
[[record]]
mutant_id = "A15U"
quantity_name = "self-cleavage kobs at 160 uM GlcN6P"
obs_value = 0.00061

[[record]]
mutant_id = "U54A C67A"
quantity_name = "self-cleavage kobs at 160 uM GlcN6P"
obs_value = 0.000242


Supply measured self-cleavage kobs at 160 uM GlcN6P of C34U U69G in your reply. 5.32e-05

Supply measured self-cleavage kobs at 160 uM GlcN6P of G43C C68U in your reply. 7.12e-05

Supply measured self-cleavage kobs at 160 uM GlcN6P of U54A C70A in your reply. 7.42e-05

Supply measured self-cleavage kobs at 160 uM GlcN6P of A14G U46G in your reply. 0.00247

Supply measured self-cleavage kobs at 160 uM GlcN6P of A15C G40C in your reply. 5.62e-05

Supply measured self-cleavage kobs at 160 uM GlcN6P of U31G C68G in your reply. 0.000192
